Property: cAMP Assay (EC-50); scope: individual binders
# SYSTEM_TESTED: melanocortin-1 receptor (human, UniProt Q01726 1-317)
# Sequence (Q01726 whole entry): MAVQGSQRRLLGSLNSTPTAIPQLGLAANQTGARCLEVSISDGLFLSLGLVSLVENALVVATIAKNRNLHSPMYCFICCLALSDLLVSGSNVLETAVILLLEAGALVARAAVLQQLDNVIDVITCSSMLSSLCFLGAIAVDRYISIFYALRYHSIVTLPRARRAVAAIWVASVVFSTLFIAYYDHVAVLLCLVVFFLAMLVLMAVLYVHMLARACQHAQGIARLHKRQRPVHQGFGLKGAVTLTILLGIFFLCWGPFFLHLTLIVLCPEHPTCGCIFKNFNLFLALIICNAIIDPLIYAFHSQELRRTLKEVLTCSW
# ASSAY_PROCEDURE: cell-based or functional assay
Bridge positions count the residues as written; N and C are the ends. Square brackets hold non-standard residues; d marks the D form. hCys = N[C@@H](CCS)C(=O)O
READOUT_KIND: cAMP Assay (EC-50) (nM)

binder="Ac-R[hCys]A[dF]RWC-NH2 (disulfide 2-7; SMILES CC(=O)N[C@@H](CCCNC(=N)N)C(=O)N[C@H]1CCSSC[C@@H](C(N)=O)NC(=O)[C@H](Cc2c[nH]c3ccccc23)NC(=O)[C@H](CCCNC(=N)N)NC(=O)[C@@H](Cc2ccccc2)NC(=O)[C@H](C)NC1=O) [Compound 15: Ac-Arg-cyclo[hCys-Ala-D-Phe-Arg-Trp-Cys]-NH2]" readout_units=nM numeric_readout=4
binder="Ac-RC[dA][His(3-Me)][dF]RWC-NH2 (disulfide 2-8) [Compound 5: Ac-Arg-cyclo[Cys-D-Ala-His(3-Me)-D-Phe-Arg-Trp-Cys]-NH2]" readout_units=nM numeric_readout=4.1
binder="Ac-R[hCys][dA][dF]RWC-NH2 (disulfide 2-7; SMILES CC(=O)N[C@@H](CCCNC(=N)N)C(=O)N[C@H]1CCSSC[C@@H](C(N)=O)NC(=O)[C@H](Cc2c[nH]c3ccccc23)NC(=O)[C@H](CCCNC(=N)N)NC(=O)[C@@H](Cc2ccccc2)NC(=O)[C@@H](C)NC1=O) [Compound 16: Ac-Arg-cyclo[hCys-D-Ala-D-Phe-Arg-Trp-Cys]-NH2]" readout_units=nM numeric_readout=888
binder="Ac-RC[dV]H[dF]RWC-NH2 (disulfide 2-8) [Compound 4: Ac-Arg-cyclo[Cys-D-Val-His-D-Phe-Arg-Trp-Cys]-NH2]" readout_units=nM numeric_readout=1.25
binder="Ac-RC[dA]R[dF]RWC-NH2 (disulfide 2-8; SMILES CC(=O)N[C@@H](CCCNC(=N)N)C(=O)N[C@H]1CSSC[C@@H](C(N)=O)NC(=O)[C@H](Cc2c[nH]c3ccccc23)NC(=O)[C@H](CCCNC(=N)N)NC(=O)[C@@H](Cc2ccccc2)NC(=O)[C@H](CCCNC(=N)N)NC(=O)[C@@H](C)NC1=O) [Compound 10: Ac-Arg-cyclo[Cys-D-Ala-Arg-D-Phe-Arg-Trp-Cys]-NH2]" readout_units=nM numeric_readout=6.2
binder="Ac-ECAH[dF]RWC-NH2 (disulfide 2-8; SMILES CC(=O)N[C@@H](CCC(=O)O)C(=O)N[C@H]1CSSC[C@@H](C(N)=O)NC(=O)[C@H](Cc2c[nH]c3ccccc23)NC(=O)[C@H](CCCNC(=N)N)NC(=O)[C@@H](Cc2ccccc2)NC(=O)[C@H](Cc2c[nH]cn2)NC(=O)[C@H](C)NC1=O) [Compound 22: Ac-Glu-cyclo[Cys-Ala-His-D-Phe-Arg-Trp-Cys]-NH2]" readout_units=nM numeric_readout=1.7
